experiment: soluble fraction after stress (log2 fold change); higher = more stays soluble; pooled small domains, quantitative proteomics; conditions: stress: 50 degC
Would you mind labelling by soluble fraction (log2)? At or over -0.8 is Yes, under is No.

Reported soluble fraction (log2) reaches at least -0.8 for HMFPASQPVPTDLNQIVRAGLEVFSGRLEGIDVRVSLEPELPRVNVDPEHFKRIVVNLVDNAAEAMQNS ?
Yes

Reported soluble fraction (log2) reaches at least -0.8 for HMNMVSGHLQIKKGYYYVVLSYYDNRNKRHVKYVSTGLPEKGNKRKAEAALARVRSEFEPPQE ?
No

Reported soluble fraction (log2) reaches at least -0.8 for HMAEWLLVQLTNGNWFYGEVIEKTDATIVLNTDILGKVSIQKLDIRRSISGPLTAAKRQEIEDSERAKD ?
Yes

Reported soluble fraction (log2) reaches at least -0.8 for HMNKNLQLMINEIKKGLASEDIETRKKSVLMLSRIDAPEIIQVLEPLKDDSSEEIRKISSKIISVLSKKYT ?
Yes

Reported soluble fraction (log2) reaches at least -0.8 for HMAIHTSVTEHGEHDLTVRMEMEQVFAIEMAVVSHEQATMLERTFKANAEAIYQKLLGVMTQEYP ?
No

Reported soluble fraction (log2) reaches at least -0.8 for HMVGNYYDILGVPETATQDAIKKAFRSLAQQHHPDKNPDDPGAEAMFKKVSEAYQVLSDPDKRQTYDASL ?
Yes

Reported soluble fraction (log2) reaches at least -0.8 for HMPDLSYVDEVLNRYKGHKGTLITVLQQVQAHKGYLEKEALERVARSMGVPTARIYGVVTFYAQFR ?
Yes

* * *

experiment: soluble fraction after stress (log2 fold change); higher = more stays soluble; pooled small domains, quantitative proteomics; details: stress: 50 degC
measured-attribute: soluble fraction (log2)

I'd like to know its soluble fraction (log2). The sequence in question is HMRDQARQFFIDTWAKFQRHDALTPLEEKTAAIIALHPEYHRVLQNPESFITTDWRPESGDINPFMHL
-1.34

I'd like to know its soluble fraction (log2). The sequence in question is HMSETEEWTVEGGQAGDRIDRHVAAMLGDDVSRSQVQQWIRAGRVTVNGRAVKPSDTVEEGDRVAVDLPEP
0.0588

I'd like to know its soluble fraction (log2). The sequence in question is HMLKAKKIPVSDLEKFKGIVAEDVVSKAKALILPRGSNLSWLSNVAKKNLIAKLKAEGIEYISVYSS
0.134

I'd like to know its soluble fraction (log2). The sequence in question is HMPDYYAILEVERTADAKTIKAAYRKLALAYHPDRNPGDQAAEERFKQINEAYAVLSDPEKRARYDRYGSV
-0.31

I'd like to know its soluble fraction (log2). The sequence in question is HMAQVDAVQQVLQAFPALRSGQSQHLSQVVAALRQRGILTVGTKTTAWFAQWASVFQLLPLQVPNRIRYQS
-0.066

I'd like to know its soluble fraction (log2). The sequence in question is HMVSKTEAMAVFIADKLQEGMVPANEILELYKGMQLSDRTIRNAKKQLGIVSIRKDGQWYWSL
-1.19

I'd like to know its soluble fraction (log2). The sequence in question is HMDTITDSYTLEKGKLRAKVMEYELPESKKKEYSATFEYRGVYYHMIGIIEKADFEEILKNLHFP
-0.165

I'd like to know its soluble fraction (log2). The sequence in question is HMGTTKGVVDVTVPNGRASQHVKLVVIDDDGGRVVYDGTNAPGDRIVKSVSGSGNVRVQIYLNNALVQEQS
-0.2

* * *

assay: soluble fraction after stress (log2 fold change); higher = more stays soluble; pooled small domains, quantitative proteomics; conditions: stress: 50 degC
measured-attribute: soluble fraction (log2)
Format: numeric value only, no unit, no commentary.

I'd like to know its soluble fraction (log2). The sequence in question is HMQDYYTQSDFARYLEDKGIHFPQNKIAVYRKRGKFPKEDLVVAGTPYWSKYTVESFAKHLLEQQN
0.0719

I'd like to know its soluble fraction (log2). The sequence in question is HMKRLQEQAYDYLKELILSGKMIENEIYSETKLASEIGISRTPIRDALQRLSQDGFIDIIPSKGFRIH
-0.134

I'd like to know its soluble fraction (log2). The sequence in question is HMGNGALLTLTVKERQVIQLVAEGKSNKQIARDLNVTPETIKSHMKNIFAKLKVDNRAQAAVMVQQ
-0.638

I'd like to know its soluble fraction (log2). The sequence in question is HMAAQDLIVKTDASQVEARVLEISPDAVRYKRFSNPDGPTYVLPVAEIRYIRYANGEVEYYA
-0.0166

I'd like to know its soluble fraction (log2). The sequence in question is HMRQDEKTLLYWIGAQVKREGKLIKTSTAQYLVEKTGTDMENLEKELEKLFAYTLDEKEITPAAIDEI
-1.8

I'd like to know its soluble fraction (log2). The sequence in question is HMQNLSELAYVNLRDALMQGQMKPGEELPLRPISRSFGISATPMREALLRLVTESALEMDSRGRISVP
-0.341

I'd like to know its soluble fraction (log2). The sequence in question is HMAFDDAHYKDMITSYLKKFKKGNRSEIENLIIPKLSEVLVEKQKKDKVKNLLQALRKDNQIRLKGKYWYL
0.135

I'd like to know its soluble fraction (log2). The sequence in question is HMNGLDSVLRNWARQTLASGGENLLGDLTDHVTRLIISEALIMTGGNRTRAAELLGLSRPTLLAKMDKLNL
-1.45

I'd like to know its soluble fraction (log2). The sequence in question is HMSSHNIALDQDVVVTQLKGKVYLVAADGSQKQLAEGDILPKDAVLITPEGASFKGGNQTFTLS
0.17

I'd like to know its soluble fraction (log2). The sequence in question is HMNNKVAVKSGYYFELFDKDEIPATLEKMKQKVKIDNIKYDLYQGTSLEDERKIDTMFGEKMGYSIDDYI
0.0224

I'd like to know its soluble fraction (log2). The sequence in question is HMSDESALLELVKQIIADNPKAVEEIRAGKEKAMGFLIGQAMKASRGSANPQIISRLVREQLG
0.128

I'd like to know its soluble fraction (log2). The sequence in question is HMKTGAKLKNLRKMKKLSQEEVAKVLNLSYSTLSRWENDTRIPTYEDLFKLGQFYGVSVDYLSDPN
-0.359

I'd like to know its soluble fraction (log2). The sequence in question is HMDYLYHNGKEIDQGSIMYKMEDYSDGIFELQSAKYADGTELDEKELEELESTQELIDWVMIDFVS
0.42

I'd like to know its soluble fraction (log2). The sequence in question is HMTKQEYLNQLKNELVKQGVADAEDVVTEYEQHFAFKLADGFGEEEIAKKLGDPAAIASQFVG
0.293

I'd like to know its soluble fraction (log2). The sequence in question is HMIEGSSDWKPNMILDDGGDLTKIIHEEYQDLLDDIRGLSEETTTGVLRLYEMEKENSLAVPAINVND
0.276

I'd like to know its soluble fraction (log2). The sequence in question is HMQDREKNIAEGRDIIEHEFMRLGISLSRYDLDGLASKLNVKAGDDVLAGVGAGDIRVSQIISQLG
-0.00799

I'd like to know its soluble fraction (log2). The sequence in question is HMGGKWKPIILYYININSVARYSELKRFIPSINERMLTRQLRELEEDNLIERKVYPIVPPKVEYRLTEYGK
0.0177

I'd like to know its soluble fraction (log2). The sequence in question is HMVSFSIDEALVSAVKGPRSANVMSIQRQFLVRLSVERDGRVTITGANSKSVQQAREAVEAAVEEAKLHP
-0.827

I'd like to know its soluble fraction (log2). The sequence in question is HMQDPRITRTRGLILQAFDALLVEKGFHALSVQAIAGRAGINRATFYAHFADKYALLDTSIQE
0.268

I'd like to know its soluble fraction (log2). The sequence in question is HMDMNVQNYRGLSLDRAKKLISDLGLKYEVVGTGDSVVKQVPSSGSRMSKENGRIILYTENVEDA
0.00608

I'd like to know its soluble fraction (log2). The sequence in question is HMKQLNKRQNDILSFAEKQGYVSVENLAKLFSVTQQTIRRDINYLSDNELLVRTHGGAYYSS
-0.902

I'd like to know its soluble fraction (log2). The sequence in question is HMNVVDTGTDANYRVKISAVNLNMRLGPSTSYKSKGYITPGNYTIIKTSGDWGKVKETGYWVALKYTSKIN
-1.06

I'd like to know its soluble fraction (log2). The sequence in question is HMRDTAKTLLAMEVVGENNKKNLQAFGIQKGDQNYQTAVVVRLMQKALMEGDTSAIRLIGELTGD
-0.197

I'd like to know its soluble fraction (log2). The sequence in question is HMKNLNVIDLSALRTLELKESSDWTLIQKRFKLLVKKYHPDMNAGSKQYEEKLKKITLAYTHLKKLF
-2.42

I'd like to know its soluble fraction (log2). The sequence in question is HMDPSDQLYTVPPSAEGLRLDLFLVQHVPHMTRALATQLTGAGQVRVNGRRAKKGDRLPSGAQVRLEQAP
-0.256

I'd like to know its soluble fraction (log2). The sequence in question is HMQRFIHITVSDVHQATRLLEEEMQLTNYSVAENNAIKIFEFTYEPQEINHLFGKNGIEVSSLFIGS
-0.134

I'd like to know its soluble fraction (log2). The sequence in question is HMAKNYYEILGLKSDATLPEIKKAFKKLSKKFHPDKNRDDDGYFESMFKSINEAYQVLIDEDKRATFDSHH
-0.59

I'd like to know its soluble fraction (log2). The sequence in question is HMGGGEYTVAKGDTLWKIAAQTLGSPTRYAEIYNLNKDVIEETARGRGKRDSSNGHWLFPGTALKIPGT
0.355

I'd like to know its soluble fraction (log2). The sequence in question is HMPDGTATATASVNVRSGASTLSPVLGVLRVGESIGVTGQANGGWVPVNYNGRAGYVYAAYLSFD
-0.161

I'd like to know its soluble fraction (log2). The sequence in question is HMRFKPLAEILAAVQTRYAGRVLDVELDRDQAGRNVYEVKLLAADGSRREIHIDAVTGKEVSL
-0.0325

I'd like to know its soluble fraction (log2). The sequence in question is HMISLPSYIREEATEVYNRLHDLGLEYTSLDVNDDSIPKGYVVRTVPEAGASVPAGQVVTVYVSLG
-0.446

I'd like to know its soluble fraction (log2). The sequence in question is HMKRSFGSVRQLRSGNYQARYTGPDTVRHTSPVTYTSKMDAEAWLVDERRKISSGTWTPPAR
0.0133

I'd like to know its soluble fraction (log2). The sequence in question is HMEAQAHYDAIYKAHPNADSIAQSAEFKAWVDAQPSVVRNAYWQLFDPKEGGTAEQIVEVFDAFVKSS
-0.151

Each recorded value in this set is attributed to the domain aggregation screens of Martell et al. (2025).
